melting point values by entry
Measured quantity: melting point

{"columns": ["Molecule", "Result"],
 "data": [
  ["O=C(Nc1cccc2c1O[C@H](C(=O)NO)CC2)OCc1ccccc1Cl [−11L]", "176 to 178 °C"],
  ["COc1cccc(COC(=O)Nc2cccc3c2O[C@H](C(=O)NO)CC3)c1 [Compound 11g]", "71 to 73 °C"],
  ["O=C(NO)C1CCc2ccc(-c3ccc(Cl)c(Cl)c3)cc2O1 (stereo not drawn) [Compound 58a]", "167 to 169 °C"],
  ["O=C(NO)[C@@H]1CCc2ccc(OCc3ccccc3Cl)cc2O1 [Compound 50d]", "141 to 147 °C"],
  ["COc1ccc(-c2ccc3c(c2)OC(C(=O)NO)CC3)cc1 (stereo not drawn) [Compound 58c]", "181 to 183 °C"],
  ["O=C(Nc1ccc2c(c1)CCC(C(=O)NO)O2)OCc1ccccc1Cl (stereo not drawn) [Compound 14k]", "188 to 189 °C"],
  ["O=C(NO)C1CCc2cc(-c3ccc(Cl)c(Cl)c3)ccc2O1 (stereo not drawn) [Compound 44c]", "89 to 91 °C"],
  ["O=C(NCc1ccccc1)Nc1cccc2c1OC(C(=O)NO)CC2 (stereo not drawn) [Compound 11e]", "187 to 190 °C"],
  ["CO[C@@H]1C[C@@H](C(=O)NO)Oc2ccccc21 (relative stereo) [Compound 85]", "102 to 104 °C"],
  ["CC(C)NC(=O)ONC(=O)C1CCc2cc(NC(=O)c3ccc(-c4ccccc4)cc3)ccc2O1 (stereo not drawn) [Compound 15]", "200 °C (dec.)"],
  ["O=C(Nc1cccc2c1OC(C(=O)NO)CC2)OCc1ccccc1Cl (racemic) [Compound 11L]", "182 to 188 °C"],
  ["C#Cc1ccc2c(c1)CCC(C(=O)NO)O2 (stereo not drawn) [Compound 19]", "161 to 163 °C"],
  ["O=C(NO)C1CCc2cc(CCCOc3ccc(F)cc3)ccc2O1 (stereo not drawn) [Compound 31]", "145 to 147 °C"],
  ["O=C(NO)C1CCc2ccc(OCc3ccccn3)cc2O1 (stereo not drawn) [Compound 50c]", "125 to 128 °C"],
  ["O=C(NO)C1CCc2cccc(NS(=O)(=O)c3ccc(F)cc3)c2O1 (stereo not drawn) [Compound 11m]", "237 to 239 °C"]
]}
